# credit: PubChem BioAssay AID330

System: P388 leukemia ip, CD2F1 mice, survival T/C
Assay: NCI In Vivo Anticancer Drug Screen. Data for tumor model P388 Leukemia (intraperitoneal) in CD2F1 (CDF1) mice
Conditions: endpoint: median survival time; dose: 25.0 mg/kg/injection; schedule: Q01DX009 (ip); vehicle: saline with Tween-80
Inconclusive results and toxic doses are left out. Rule for the calls: active = survival T/C of 150% or more; inactive = T/C below 125% in these data.
Allowed answers: active, inactive

Some solved entries appear below for comparison.
# Compound, Classification
records = [
    ("O=C/C=C/c1ccc([N+](=O)[O-])cc1Cl", "inactive"),
    ("CC1=C2C(=O)[C@H]3[C@@H](CC=C4C[C@@H](O)CC[C@@]43C)[C@@H]2CC[C@]12O[C@@H]1C[C@H](C)CN[C@H]1[C@H]2C", "inactive"),
    ("CC1(C)N=C(N)N=C(N)N1c1ccc(OCCCCNC(=O)c2ccc(S(=O)(=O)F)cc2)c(Cl)c1", "active"),
    ("CCCCCCCCCCCCCCCC[As](CCCCCCCCCCCCCCCC)SCC1OC(OC(C)=O)C(OC(C)=O)C(OC(C)=O)C1OC(C)=O (stereo not given)", "inactive"),
    ("CC1(C)COC(c2cc(Br)ccc2Br)=N1", "inactive"),
]

# lookup: test call for CCC(C)c1cnc(CC(C)C)c(=O)n1O (stereo not given)
inactive
